biological target: N2.8; experiment: FP
Where no end group is shown, it is not given here.
reported-endpoint: pKd
# pKd = -log10(concentration in molar units)

# input binder: GYQDYEPEA (also: TAMRA fluorophore, position not given here) [TAMRA-labeled α-synuclein peptide] ; wanted: its pKd
7.55
